List of difference in %Control versus compound Ib at 1 µM values.
Target: EGFR(L747-E749del, A750P) (Homo sapiens, UniProt P00533, A750P/DEL747-749)
Construct: purchased Eurofins DiscoverX KINOMEscan (scanTK)
Sequence (P00533 with tags, fused parts or gaps DEL747-749/A750P limits assumed): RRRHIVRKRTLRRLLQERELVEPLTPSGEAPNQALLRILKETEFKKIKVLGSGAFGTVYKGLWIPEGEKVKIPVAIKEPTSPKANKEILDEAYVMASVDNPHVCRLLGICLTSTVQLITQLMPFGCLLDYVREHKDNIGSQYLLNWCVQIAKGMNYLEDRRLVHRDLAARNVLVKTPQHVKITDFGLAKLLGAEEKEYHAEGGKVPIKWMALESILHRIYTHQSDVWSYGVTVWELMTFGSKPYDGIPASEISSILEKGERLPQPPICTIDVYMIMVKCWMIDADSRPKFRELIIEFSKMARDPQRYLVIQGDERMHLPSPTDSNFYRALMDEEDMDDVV
Test: KINOMEscan ScanTK
Assay type: binding
Conditions: @1000nM
QUANTITY KIND: difference in %Control versus compound Ib at 1 µM (%)

[[record]]
molecule = "Cc1cnc(S(C)(=O)=O)nc1N1CCCC(n2nc(-c3ccc(Oc4ccccc4)cc3)c3c(N)ncnc32)C1 (stereo not shown)"
numeric_result = 79.9

[[record]]
molecule = "CNC(=O)c1cnc(S(C)(=O)=O)nc1N1CCCC(n2nc(-c3ccc(Oc4ccccc4)cc3)c3c(N)ncnc32)C1 (stereo not shown)"
numeric_result = 48.9

[[record]]
molecule = "CCOC(=O)c1cnc(S(C)(=O)=O)nc1N1CCC[C@@H](n2nc(-c3ccc(Oc4ccccc4)cc3)c3c(N)ncnc32)C1"
numeric_result = 63.9

[[record]]
molecule = "COC(=O)c1cnc(S(C)(=O)=O)nc1N1CCCC(n2nc(-c3ccc(Oc4ccccc4)cc3)c3c(N)ncnc32)C1 (stereo not shown)"
numeric_result = 69.9


###

List of difference in % of control vs compound Ib at 1 µM values.
Molecular target: ALK(L1196M) (Homo sapiens, UniProt Q9UM73, L1196M)
Construct: purchased Eurofins DiscoverX KINOMEscan (scanTK)
Assay: KINOMEscan ScanTK
Assay type: binding
Conditions: @1000nM
QUANTITY KIND: difference in % of control vs compound Ib at 1 µM (%)

[[record]]
compound = "Cc1cnc(S(C)(=O)=O)nc1N1CCCC(n2nc(-c3ccc(Oc4ccccc4)cc3)c3c(N)ncnc32)C1 (stereo not shown)"
numeric_result = -5

[[record]]
compound = "COC(=O)c1cnc(S(C)(=O)=O)nc1N1CCCC(n2nc(-c3ccc(Oc4ccccc4)cc3)c3c(N)ncnc32)C1 (stereo not shown)"
numeric_result = -8

[[record]]
compound = "CNC(=O)c1cnc(S(C)(=O)=O)nc1N1CCCC(n2nc(-c3ccc(Oc4ccccc4)cc3)c3c(N)ncnc32)C1 (stereo not shown)"
numeric_result = -21

[[record]]
compound = "CCOC(=O)c1cnc(S(C)(=O)=O)nc1N1CCC[C@@H](n2nc(-c3ccc(Oc4ccccc4)cc3)c3c(N)ncnc32)C1"
numeric_result = -23


###

List of remaining binding at 1 µM values.
Target: LCK (Homo sapiens)
Construct: purchased Eurofins DiscoverX KINOMEscan (scanTK)
Sequence (P06239 whole entry): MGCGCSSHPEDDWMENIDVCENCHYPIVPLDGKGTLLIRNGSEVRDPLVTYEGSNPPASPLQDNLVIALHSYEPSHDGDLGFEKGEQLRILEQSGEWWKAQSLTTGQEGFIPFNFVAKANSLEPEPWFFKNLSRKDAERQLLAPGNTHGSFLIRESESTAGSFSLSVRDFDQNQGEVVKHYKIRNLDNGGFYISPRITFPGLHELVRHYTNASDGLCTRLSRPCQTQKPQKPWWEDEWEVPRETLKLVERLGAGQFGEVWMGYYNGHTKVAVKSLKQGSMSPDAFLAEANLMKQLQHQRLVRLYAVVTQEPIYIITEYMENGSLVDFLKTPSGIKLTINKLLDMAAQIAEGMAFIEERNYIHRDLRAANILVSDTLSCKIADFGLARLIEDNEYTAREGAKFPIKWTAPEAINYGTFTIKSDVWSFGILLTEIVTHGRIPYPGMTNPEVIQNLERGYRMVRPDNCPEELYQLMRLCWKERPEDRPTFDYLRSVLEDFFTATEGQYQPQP
Assay: KINOMEscan ScanTK
Assay type: binding
Conditions: read-out: %Control @1000nM
QUANTITY KIND: remaining binding at 1 µM (%)

[[record]]
compound = "CCOC(=O)c1cnc(S(C)(=O)=O)nc1N1CCC[C@@H](n2nc(-c3ccc(Oc4ccccc4)cc3)c3c(N)ncnc32)C1 [Compound 8c]"
quantity_kind = "remaining binding at 1 µM"
numeric_result = 25

[[record]]
compound = "COC(=O)c1cnc(S(C)(=O)=O)nc1N1CCCC(n2nc(-c3ccc(Oc4ccccc4)cc3)c3c(N)ncnc32)C1 (stereo not shown) [Compound 8b]"
quantity_kind = "remaining binding at 1 µM"
numeric_result = 8.3

[[record]]
compound = "CNC(=O)c1cnc(S(C)(=O)=O)nc1N1CCCC(n2nc(-c3ccc(Oc4ccccc4)cc3)c3c(N)ncnc32)C1 (stereo not shown) [Compound 8d]"
quantity_kind = "remaining binding at 1 µM"
numeric_result = 4

[[record]]
compound = "Cc1cnc(S(C)(=O)=O)nc1N1CCCC(n2nc(-c3ccc(Oc4ccccc4)cc3)c3c(N)ncnc32)C1 (stereo not shown) [Compound 8a]"
quantity_kind = "remaining binding at 1 µM"
numeric_result = 2


###

Molecular target: PYK2 (Homo sapiens, UniProt Q14289)
Construct: purchased Eurofins DiscoverX KINOMEscan (scanTK)
Sequence (Q14289 whole entry): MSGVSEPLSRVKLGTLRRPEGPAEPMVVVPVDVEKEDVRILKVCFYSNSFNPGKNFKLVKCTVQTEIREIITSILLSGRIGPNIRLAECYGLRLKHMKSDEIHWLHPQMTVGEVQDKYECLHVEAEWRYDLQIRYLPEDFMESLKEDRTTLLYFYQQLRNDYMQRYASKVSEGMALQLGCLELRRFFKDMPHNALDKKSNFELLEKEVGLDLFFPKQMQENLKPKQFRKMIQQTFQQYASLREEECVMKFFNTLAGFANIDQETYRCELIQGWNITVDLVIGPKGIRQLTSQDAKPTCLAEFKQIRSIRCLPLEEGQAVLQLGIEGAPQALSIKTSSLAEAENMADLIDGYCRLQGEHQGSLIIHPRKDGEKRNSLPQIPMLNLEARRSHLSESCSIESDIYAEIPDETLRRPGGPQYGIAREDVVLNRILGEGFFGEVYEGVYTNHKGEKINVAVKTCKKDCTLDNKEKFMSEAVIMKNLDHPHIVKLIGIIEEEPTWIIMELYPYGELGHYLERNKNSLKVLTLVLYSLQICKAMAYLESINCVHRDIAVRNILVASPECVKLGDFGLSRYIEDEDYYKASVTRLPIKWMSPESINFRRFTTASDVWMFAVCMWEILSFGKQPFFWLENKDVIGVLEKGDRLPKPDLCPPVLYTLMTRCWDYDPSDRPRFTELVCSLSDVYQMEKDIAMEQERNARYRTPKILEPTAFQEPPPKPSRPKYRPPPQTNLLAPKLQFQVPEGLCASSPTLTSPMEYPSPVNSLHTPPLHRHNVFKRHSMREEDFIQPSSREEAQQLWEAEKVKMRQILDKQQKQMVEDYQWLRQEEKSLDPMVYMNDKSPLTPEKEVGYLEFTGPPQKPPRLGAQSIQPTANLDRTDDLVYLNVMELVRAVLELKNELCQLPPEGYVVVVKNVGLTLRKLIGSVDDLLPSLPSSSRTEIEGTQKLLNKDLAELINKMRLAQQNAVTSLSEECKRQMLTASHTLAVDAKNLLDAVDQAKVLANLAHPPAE
Assay: KINOMEscan ScanTK
Assay type: binding
Details: read-out: %Control @1000nM
QUANTITY KIND: remaining binding at 1 µM (%)

[[record]]
molecule = "COC(=O)c1cnc(S(C)(=O)=O)nc1N1CCCC(n2nc(-c3ccc(Oc4ccccc4)cc3)c3c(N)ncnc32)C1 (centres unmarked)"
quantity_kind = "remaining binding at 1 µM"
numeric_result = 85

[[record]]
molecule = "Cc1cnc(S(C)(=O)=O)nc1N1CCCC(n2nc(-c3ccc(Oc4ccccc4)cc3)c3c(N)ncnc32)C1 (centres unmarked)"
quantity_kind = "remaining binding at 1 µM"
numeric_result = 92

[[record]]
molecule = "CNC(=O)c1cnc(S(C)(=O)=O)nc1N1CCCC(n2nc(-c3ccc(Oc4ccccc4)cc3)c3c(N)ncnc32)C1 (centres unmarked)"
quantity_kind = "remaining binding at 1 µM"
numeric_result = 100

[[record]]
molecule = "CCOC(=O)c1cnc(S(C)(=O)=O)nc1N1CCC[C@@H](n2nc(-c3ccc(Oc4ccccc4)cc3)c3c(N)ncnc32)C1"
quantity_kind = "remaining binding at 1 µM"
numeric_result = 81

[[record]]
molecule = "C=CC(=O)N1CCC[C@@H](n2nc(-c3ccc(Oc4ccccc4)cc3)c3c(N)ncnc32)C1 [Compound 1g, Ibrutinib, reference compound]"
quantity_kind = "remaining binding at 1 µM"
numeric_result = 100


###

Molecular target: ABL2 (Homo sapiens, UniProt P42684)
Construct: purchased Eurofins DiscoverX KINOMEscan (scanTK)
Sequence (P42684 whole entry): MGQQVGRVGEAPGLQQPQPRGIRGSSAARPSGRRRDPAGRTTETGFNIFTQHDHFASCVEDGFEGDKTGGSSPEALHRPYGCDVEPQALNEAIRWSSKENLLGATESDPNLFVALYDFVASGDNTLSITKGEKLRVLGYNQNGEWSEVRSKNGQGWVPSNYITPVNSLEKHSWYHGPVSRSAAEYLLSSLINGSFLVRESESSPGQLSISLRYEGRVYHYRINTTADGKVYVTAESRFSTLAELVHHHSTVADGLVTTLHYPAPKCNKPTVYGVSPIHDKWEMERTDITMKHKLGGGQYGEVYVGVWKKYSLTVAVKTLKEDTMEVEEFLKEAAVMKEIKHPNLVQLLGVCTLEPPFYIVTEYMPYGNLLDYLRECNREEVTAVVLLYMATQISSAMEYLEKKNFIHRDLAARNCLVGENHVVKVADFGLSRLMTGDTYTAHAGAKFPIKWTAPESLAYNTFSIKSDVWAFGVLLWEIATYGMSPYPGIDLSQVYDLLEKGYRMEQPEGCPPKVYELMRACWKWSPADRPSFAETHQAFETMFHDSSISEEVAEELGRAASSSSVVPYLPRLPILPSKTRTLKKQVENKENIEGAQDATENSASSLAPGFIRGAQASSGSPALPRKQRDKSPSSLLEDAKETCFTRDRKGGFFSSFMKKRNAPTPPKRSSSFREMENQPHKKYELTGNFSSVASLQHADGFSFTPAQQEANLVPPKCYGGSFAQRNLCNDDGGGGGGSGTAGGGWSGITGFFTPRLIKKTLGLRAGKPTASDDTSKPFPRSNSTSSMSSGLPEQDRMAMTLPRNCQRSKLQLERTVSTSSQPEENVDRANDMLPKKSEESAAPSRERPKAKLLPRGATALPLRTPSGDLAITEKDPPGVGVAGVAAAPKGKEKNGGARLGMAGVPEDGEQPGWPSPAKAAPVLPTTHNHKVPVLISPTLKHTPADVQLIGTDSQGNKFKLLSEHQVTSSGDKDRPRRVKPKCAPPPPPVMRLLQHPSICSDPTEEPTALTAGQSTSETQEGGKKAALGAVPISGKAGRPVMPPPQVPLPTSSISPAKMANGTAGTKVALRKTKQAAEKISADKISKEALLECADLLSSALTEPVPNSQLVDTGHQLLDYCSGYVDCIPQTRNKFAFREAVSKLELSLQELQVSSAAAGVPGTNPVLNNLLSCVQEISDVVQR
Test: KINOMEscan ScanTK
Assay type: binding
Conditions: read-out: %Control @1000nM
QUANTITY KIND: remaining binding at 1 µM (%)

[[record]]
compound = "COC(=O)c1cnc(S(C)(=O)=O)nc1N1CCCC(n2nc(-c3ccc(Oc4ccccc4)cc3)c3c(N)ncnc32)C1 (centres unmarked) [Compound 8b]"
quantity_kind = "remaining binding at 1 µM"
readout_unit = "%"
numeric_result = 79

[[record]]
compound = "C=CC(=O)N1CCC[C@@H](n2nc(-c3ccc(Oc4ccccc4)cc3)c3c(N)ncnc32)C1 [Compound 1g, Ibrutinib, reference compound]"
quantity_kind = "remaining binding at 1 µM"
readout_unit = "%"
numeric_result = 41

[[record]]
compound = "CNC(=O)c1cnc(S(C)(=O)=O)nc1N1CCCC(n2nc(-c3ccc(Oc4ccccc4)cc3)c3c(N)ncnc32)C1 (centres unmarked) [Compound 8d]"
quantity_kind = "remaining binding at 1 µM"
readout_unit = "%"
numeric_result = 89

[[record]]
compound = "CCOC(=O)c1cnc(S(C)(=O)=O)nc1N1CCC[C@@H](n2nc(-c3ccc(Oc4ccccc4)cc3)c3c(N)ncnc32)C1 [Compound 8c]"
quantity_kind = "remaining binding at 1 µM"
readout_unit = "%"
numeric_result = 98

[[record]]
compound = "Cc1cnc(S(C)(=O)=O)nc1N1CCCC(n2nc(-c3ccc(Oc4ccccc4)cc3)c3c(N)ncnc32)C1 (centres unmarked) [Compound 8a]"
quantity_kind = "remaining binding at 1 µM"
readout_unit = "%"
numeric_result = 70


###

Molecular target: BMX (Homo sapiens, UniProt P51813)
Construct: purchased Eurofins DiscoverX KINOMEscan (scanTK)
Sequence (P51813 whole entry): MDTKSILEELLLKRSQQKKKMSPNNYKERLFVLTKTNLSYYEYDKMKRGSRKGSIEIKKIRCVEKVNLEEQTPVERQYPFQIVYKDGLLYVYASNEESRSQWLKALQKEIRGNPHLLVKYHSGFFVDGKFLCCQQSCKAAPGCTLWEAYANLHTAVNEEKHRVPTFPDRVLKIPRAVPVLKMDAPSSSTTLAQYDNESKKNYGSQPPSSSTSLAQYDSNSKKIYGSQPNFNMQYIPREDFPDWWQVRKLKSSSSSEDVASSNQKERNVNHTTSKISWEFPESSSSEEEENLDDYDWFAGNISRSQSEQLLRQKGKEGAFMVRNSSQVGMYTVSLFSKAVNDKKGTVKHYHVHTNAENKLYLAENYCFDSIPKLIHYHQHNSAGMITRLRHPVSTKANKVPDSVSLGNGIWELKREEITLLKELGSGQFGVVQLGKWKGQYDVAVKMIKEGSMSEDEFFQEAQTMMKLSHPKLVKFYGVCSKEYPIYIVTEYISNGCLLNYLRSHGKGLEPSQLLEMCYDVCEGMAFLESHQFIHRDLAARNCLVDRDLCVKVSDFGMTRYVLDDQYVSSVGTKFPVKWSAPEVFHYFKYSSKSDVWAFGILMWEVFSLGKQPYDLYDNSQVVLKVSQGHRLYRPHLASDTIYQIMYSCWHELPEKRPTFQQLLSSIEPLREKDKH
Experiment: KINOMEscan ScanTK
Type: binding
Conditions: @1000nM, read-out: %Control
List of remaining binding at 1 µM values.
QUANTITY KIND: remaining binding at 1 µM (%)

[[record]]
compound = "CCOC(=O)c1cnc(S(C)(=O)=O)nc1N1CCC[C@@H](n2nc(-c3ccc(Oc4ccccc4)cc3)c3c(N)ncnc32)C1"
readout_unit = "%"
numeric_result = 69

[[record]]
compound = "Cc1cnc(S(C)(=O)=O)nc1N1CCCC(n2nc(-c3ccc(Oc4ccccc4)cc3)c3c(N)ncnc32)C1 (stereo not shown)"
readout_unit = "%"
numeric_result = 38

[[record]]
compound = "COC(=O)c1cnc(S(C)(=O)=O)nc1N1CCCC(n2nc(-c3ccc(Oc4ccccc4)cc3)c3c(N)ncnc32)C1 (stereo not shown)"
readout_unit = "%"
numeric_result = 53

[[record]]
compound = "CNC(=O)c1cnc(S(C)(=O)=O)nc1N1CCCC(n2nc(-c3ccc(Oc4ccccc4)cc3)c3c(N)ncnc32)C1 (stereo not shown)"
readout_unit = "%"
numeric_result = 61


###

Molecular target: EPHA3 (Homo sapiens, UniProt P29320)
Construct: purchased Eurofins DiscoverX KINOMEscan (scanTK)
Sequence (P29320 21-983): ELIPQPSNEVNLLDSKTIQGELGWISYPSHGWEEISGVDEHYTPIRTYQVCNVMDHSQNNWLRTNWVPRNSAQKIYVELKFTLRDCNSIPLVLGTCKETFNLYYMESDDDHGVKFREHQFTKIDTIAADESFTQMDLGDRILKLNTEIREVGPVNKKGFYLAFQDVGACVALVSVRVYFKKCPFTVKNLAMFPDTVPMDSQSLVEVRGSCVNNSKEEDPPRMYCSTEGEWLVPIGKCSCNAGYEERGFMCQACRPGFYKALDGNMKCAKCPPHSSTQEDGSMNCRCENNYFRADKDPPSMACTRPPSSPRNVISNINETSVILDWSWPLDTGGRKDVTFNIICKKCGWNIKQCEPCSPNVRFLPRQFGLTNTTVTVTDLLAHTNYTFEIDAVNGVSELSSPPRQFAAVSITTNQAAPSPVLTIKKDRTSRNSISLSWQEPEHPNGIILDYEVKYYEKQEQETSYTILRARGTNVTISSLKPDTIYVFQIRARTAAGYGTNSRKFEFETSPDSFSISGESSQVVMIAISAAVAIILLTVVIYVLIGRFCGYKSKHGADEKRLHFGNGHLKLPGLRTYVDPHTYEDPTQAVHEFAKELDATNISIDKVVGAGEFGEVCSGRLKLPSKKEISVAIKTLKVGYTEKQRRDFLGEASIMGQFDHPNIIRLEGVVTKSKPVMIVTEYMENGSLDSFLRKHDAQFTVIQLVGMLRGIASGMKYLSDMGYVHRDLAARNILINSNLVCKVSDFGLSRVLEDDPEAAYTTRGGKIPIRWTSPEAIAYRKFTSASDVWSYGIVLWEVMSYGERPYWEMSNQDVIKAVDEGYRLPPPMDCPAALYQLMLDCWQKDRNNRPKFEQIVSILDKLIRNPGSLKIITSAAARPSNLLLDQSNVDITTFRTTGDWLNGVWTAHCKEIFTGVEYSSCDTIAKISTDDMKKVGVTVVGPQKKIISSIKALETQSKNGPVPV
Test: KINOMEscan ScanTK
Type: binding
Settings: @1000nM, read-out: %Control
QUANTITY KIND: remaining binding at 1 µM (%)

[[record]]
molecule = "CNC(=O)c1cnc(S(C)(=O)=O)nc1N1CCCC(n2nc(-c3ccc(Oc4ccccc4)cc3)c3c(N)ncnc32)C1 (centres unmarked)"
quantity_kind = "remaining binding at 1 µM"
numeric_result = 84

[[record]]
molecule = "COC(=O)c1cnc(S(C)(=O)=O)nc1N1CCCC(n2nc(-c3ccc(Oc4ccccc4)cc3)c3c(N)ncnc32)C1 (centres unmarked)"
quantity_kind = "remaining binding at 1 µM"
numeric_result = 77

[[record]]
molecule = "C=CC(=O)N1CCC[C@@H](n2nc(-c3ccc(Oc4ccccc4)cc3)c3c(N)ncnc32)C1 [Compound 1g, Ibrutinib, reference compound]"
quantity_kind = "remaining binding at 1 µM"
numeric_result = 76

[[record]]
molecule = "Cc1cnc(S(C)(=O)=O)nc1N1CCCC(n2nc(-c3ccc(Oc4ccccc4)cc3)c3c(N)ncnc32)C1 (centres unmarked)"
quantity_kind = "remaining binding at 1 µM"
numeric_result = 81

[[record]]
molecule = "CCOC(=O)c1cnc(S(C)(=O)=O)nc1N1CCC[C@@H](n2nc(-c3ccc(Oc4ccccc4)cc3)c3c(N)ncnc32)C1"
quantity_kind = "remaining binding at 1 µM"
numeric_result = 77

